# MEASUREMENT TARGET: Human complement C1s enzyme (Homo sapiens, UniProt P09871)
# Construct: purified from human serum, Complement Technology, Inc
# Sequence (P09871 438-688 limits assumed): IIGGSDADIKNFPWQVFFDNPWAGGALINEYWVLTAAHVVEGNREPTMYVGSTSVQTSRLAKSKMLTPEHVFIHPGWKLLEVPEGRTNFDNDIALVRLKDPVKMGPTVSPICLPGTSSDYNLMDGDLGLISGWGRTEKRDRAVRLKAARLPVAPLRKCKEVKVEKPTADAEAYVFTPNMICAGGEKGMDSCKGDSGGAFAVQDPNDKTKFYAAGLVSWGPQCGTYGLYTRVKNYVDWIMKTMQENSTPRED
# Sequence (P09871 16-437 partner limits assumed): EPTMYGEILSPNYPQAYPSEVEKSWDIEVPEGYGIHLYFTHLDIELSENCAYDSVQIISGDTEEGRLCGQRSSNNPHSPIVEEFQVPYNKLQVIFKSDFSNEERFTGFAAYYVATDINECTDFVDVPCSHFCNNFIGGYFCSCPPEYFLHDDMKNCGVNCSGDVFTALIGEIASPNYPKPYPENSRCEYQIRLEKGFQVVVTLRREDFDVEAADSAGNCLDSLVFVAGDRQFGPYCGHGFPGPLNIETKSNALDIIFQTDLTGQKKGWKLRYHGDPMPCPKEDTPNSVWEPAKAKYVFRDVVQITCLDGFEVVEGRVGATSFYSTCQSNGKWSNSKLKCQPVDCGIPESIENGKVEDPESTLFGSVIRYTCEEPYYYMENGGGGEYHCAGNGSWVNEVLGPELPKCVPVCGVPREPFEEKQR
# ASSAY NAME: Human C1s enzyme assay
# ASSAY CONTEXT: human complement C1s enzyme 1.16 nM, substrate Z-L-Lys-SBzl, A405; read-out: IC50 (Stars)
QUANTITY KIND: IC50

These solved cases illustrate the format of a correct answer.
MOLECULE	MEASUREMENT TARGET	TEST VALUE
CS(=N)(=O)c1ccc(-c2ncc(NCCCc3ccccc3)c(=O)n2CC(=O)NCc2cc3cnccc3[nH]2)cc1 (stereo not shown)	Human complement C1s enzyme (Homo sapiens, UniProt P09871)	< 100 nM
C[C@H](Nc1cnc(C2CCCC2)n(CC(=O)NCc2cc3cnccc3[nH]2)c1=O)c1ccc2oc3ccccc3c2c1	Human complement C1s enzyme (Homo sapiens, UniProt P09871)	< 100 nM
O=C(Cn1c(-c2ccccc2)ncc(NCCNC(=O)c2ccc3c(c2)-c2ccccc2C3(F)F)c1=O)NCc1cc2cnccc2[nH]1	Human complement C1s enzyme (Homo sapiens, UniProt P09871)	< 100 nM
N#Cc1ccc(CCCNc2cnc(-c3ccccc3)n(CC(=O)NCc3cc4cnccc4[nH]3)c2=O)cc1	Human complement C1s enzyme (Homo sapiens, UniProt P09871)	< 100 nM
O=C(Cn1c(-c2ccccc2)cnc(NCCCc2ccccc2)c1=O)N[C@H](CO)c1cc2cnccc2[nH]1	Human complement C1s enzyme (Homo sapiens, UniProt P09871)	100 to 1000 nM

query: Which measured IC50 value corresponds to CC1(c2ccc(CCCNc3cnc(-c4ccccc4)n(CC(=O)NCc4cc5cnccc5[nH]4)c3=O)cc2)COC1 ?
result: < 100 nM

query: Would you kindly share the measured IC50 for CS(=O)(=O)c1ccc(-c2ncc(NCCCc3ccccc3)c(=O)n2CC(=O)NCc2cc3cnccc3[nH]2)cc1 ?
result: < 100 nM

###

# MEASUREMENT TARGET: Human complement C1s enzyme (Homo sapiens, UniProt P09871)
# Construct: purified from human serum, Complement Technology, Inc
# ASSAY NAME: Human C1s enzyme assay
# ASSAY CONTEXT: human complement C1s enzyme 1.16 nM, substrate Z-L-Lys-SBzl, A405; read-out: IC50 (Stars)
# Description: The […] values of the compounds of Table 1 were determined with the human C1s enzyme assay described below. Other standard complement assays are also available. Human complement C1s enzyme (purified from human serum, Complement Technology, Inc.) at 1.16 nM final concentration was incubated with test compound at various concentrations for 5 min at room temperature in 50 mM Tris, 1 M NaCl, pH 7.5. […] […]; ND indicates a compound for which the IC50 value is not determined.
pIC50: −log10 of the molar value.
Listed here are compounds together with their documented pIC50.

COMPOUND	MEASUREMENT TARGET	pIC50
O=C(Cn1c(-c2ccccc2)ncc(NCCCc2ccc3oc4ccccc4c3c2)c1=O)NCc1cc2cnccc2[nH]1 [Compound 40]	Human complement C1s enzyme (Homo sapiens, UniProt P09871)	> 7.00

Proceeding to the next compound to report its pIC50.
query: For C[C@@H](Nc1cnc(-c2ncco2)n(CC(=O)NCc2cc3cnccc3[nH]2)c1=O)c1ccc2oc3ccccc3c2c1 [Compound 320] , what is its reported pIC50?
result: > 7.00
